- measurement-notes: yeast display, Sf9 membrane polyspecificity reagent, FACS + sequencing; frameworks hold sequencing errors
reported-property: polyreactivity (PSR sort gate)

// known answers, use as guide
| biosequence | reported-property | value-reported |
| --- | --- | --- |
| QVQLVESGGGLVQAGGSLRLICAASGRIFDDNAMGWYRQAPGKERELVATISSTGGRTYYADSVKGRFTISRDNAKNTVYLQMNSLKPEDTAVYYCAARRRQGGYYYWGQGTQVTVSS | polyreactivity (PSR sort gate) | high polyreactivity |
| QVQLVESGGGLVQAGGSLRLSCAASGFIFRYYAMGWYRQAPGKEREFVAAISRSGSSTYYADSVKGRFTISRDNAKNTVYLQMNSLKPEDTAVYYCNARKYRKGYGYWGQGTQVTVSS | polyreactivity (PSR sort gate) | high polyreactivity |
| QVQLVESGGGLVQAGGSLRLSCAASGRTFGVYAMGWYRQAPGKERELVAAITGRGGSTYYADSVKGRFTISRDNAKNTVYLQMNSLKAEDTALYYCNAELYEYQSWDDYWGQGTQVTVSS | polyreactivity (PSR sort gate) | low polyreactivity |
| QVQLVESGGGLVQAGGSLRLSCAASGSIFGINAMGWYRPAPGKERQLVAAISGSTSRSYYADSVKGRFTISRDNAKNTVYLQMNSLKPEDTAVYYCAVVGLRSVTRRSYYWGQGTQVTVSS | polyreactivity (PSR sort gate) | high polyreactivity |

Sample QVQLVESGGGLVQAGGSLRLSCAASGFTFTRYAMGWYRPAPGKERELVAAISSRGGSTNYADSVKGRFTISRDNAKNTVYLQMNSLKPEDTAVYYCAAVYYRLRYEYDYWGQGTQVTVSS ; polyreactivity (PSR sort gate) observed: high polyreactivity

Sample QVQLVESGGGLVQAGGSLRLSCAASGRIFIYNAMGWYRQAPGKEREFVAAISSSGGSTYYADSVKGRFTISRDNAKNTVYLQMNSLKPEDTAVYYCAAGGWPYSGGLFFQPNYDYWGQGTQVTVSS ; polyreactivity (PSR sort gate) observed: low polyreactivity

Sample QVQLVESGGGLVQAGGSLSLSCAASGRITRFNAMGWYRQAPGKERELVAAITRGASTYYADSVKGRFTISRDNAKNSVYLQMNRLKQEDTAVYYCAAAPRYSWTSVARYDYWGQGTQVTVSS ; polyreactivity (PSR sort gate) observed: high polyreactivity

Sample QVQLVESGGGLVQAGGCLRLSCAASGSTFYGYAMGWYRQAPGKERELVAAISRIGSSTYYADSVKGRFTISRDNAKITVYLQMNSLKPEDTAVYYCAADTWKVFGVDYWGQGTQVSVSS ; polyreactivity (PSR sort gate) observed: high polyreactivity

Sample QVQLVESGGGLVQAGGSLRLSCAASGRTIGIYAMGLYRQAPGKERELVAAITWSGDSTYYADSVKGRFTISRDNAKNTVYLQMNSLKPEDTAVYYCAAYYLYRYQTMGYWGQGTLVTVSS ; polyreactivity (PSR sort gate) observed: low polyreactivity

Sample QVQLVESGGGLVQAGGSLRLSCAASGSTFPFYAMGWYRQAPGKERELVAAITSGGSTYADSVKGRFTISRDNAKNTVYLQMNSLNPEDTAVYYCAASWPRWWRFGYWGQGTQVTVSS ; polyreactivity (PSR sort gate) observed: low polyreactivity

Sample QDLLVESGGGLVQAGGSLRLSCAASGSIFDDYAMGWYRQAPGKERELVAAISSSGTSTYYADSVKGRFTISRDHAKNTVYLQMNSLIPEYTAVYYCAARSAILKSGYLKDYWGQGTQVTVSS ; polyreactivity (PSR sort gate) observed: low polyreactivity

Sample QDQLVESGGGLVQAGGSLRLSCAASGRTLWRNTMGWYRQAPGKERELVAAITTRGGSTYYADSVKGRFTISRDNAKNTVYLQLNSLKPEDTAVYYCAARTYTGEGSGRFYYWGQGTQVTVSS ; polyreactivity (PSR sort gate) observed: high polyreactivity

Sample QVQLVESGGALVQAGGSLRLSCAASGRIFLKYTMGWYRQAPGKERELVAAISRGGSTYYADSVKGRFTISRDNAKNTVYLQMNSLKPEDTAVYYCAATSYRRTGYNYWGQGTQVTVSS ; polyreactivity (PSR sort gate) observed: high polyreactivity

Sample QVQLVESGGGLVQAGGSLRLSCAASGRIFVSYAMGWYRQAPGKERELVATINIGSDTYYADSVKGRFTISRDNAKNTVYLQMNSLKPEDTAVYYCAKDYYEGDSYPYPGYEYWGQGTQVTVSS ; polyreactivity (PSR sort gate) observed: low polyreactivity

Sample QVQLVESGGGLVQAGGSLRLSCAASGFTIFLNAMGWYRQAPGKERELVAAITVSGSSTYYADSVKGRFTISRDNAKNTVYLQMNSLKPEDTAVYYCNAEIYSPYYTYDYWGQGTQVTVSS ; polyreactivity (PSR sort gate) observed: low polyreactivity

Sample QVQLVESGGGLVQAGGTLRLSCAASGGIFTDYTMGWYRQAPGKERELVAAITWTGGSTYYADSVKGRFTISRDNAKNTVYLQMNSLKPEDTAVYYCAADDYWVNLDYWGQGTQVTVSS ; polyreactivity (PSR sort gate) observed: low polyreactivity

Sample QVQLVESGGGLVQAGGSLRLSCAASGFTFYRYAMGWYRQAPGKERELVAAITRTGSTYYADSVKGRFTISRDNAKNTVYLQMNSLKPEDTAVYYCARRSLYFPSYGLYYWGQGTQVTVSS ; polyreactivity (PSR sort gate) observed: high polyreactivity

Sample QVQLVESGGGLVQAGGRLRLICDASGRIFYRYAIGWYRQAPGKERELVAVITSSGGRTYYADSVKGRFTISRDTAKNTVYLPMNSLKPEDTAVYYCTAYVRRIVRSYYWGQGTQVTVSS ; polyreactivity (PSR sort gate) observed: high polyreactivity

Sample QVQLVESGGGLVQAGGSLRLSCAASGSTFRTYAMGWYRQAPGKVRELVAAITNGGSTYADSVKGRFTISRDNAKNTVYLQMNSLKPEDTAVYYCNADFGFGYVSLLYEYWGQGTQVTVSS ; polyreactivity (PSR sort gate) observed: low polyreactivity

Sample QVQLVESGGGLVQAGGRLRLSCAASAFIFVTYAMGCYRQAPGKERELVAAITNSGGTTYYADSVKGRFTISRDNAKNTVYLQMNSLKPEDTAVYYCNTEDFFNVPEMDSWGQGTQVTVSS ; polyreactivity (PSR sort gate) observed: low polyreactivity

Sample QVQLVESGGGLVQAGGSLRLSCAASGLIFYYYTMGWYIQAPGKVRELVAAISSAGSTYYADSVKGRFTISRDNAKNTVYLQMNSLKPEDTEVYYCATRSQAQYTRYYGYRQFYYWGQGTQVTVSS ; polyreactivity (PSR sort gate) observed: high polyreactivity

From: the nanobody polyreactivity screen of Harvey et al. (2022)
